This collection of values is drawn from the supplement of paper PMC9170038.

Tested on: MS2 coat protein
Assay: apparent KD of MS2 coat protein; designed switch direction (-1 OFF switch, 1 ON switch): -1; higher = weaker reporter binding
Settings: input ligand: microRNA oligo, concentration not stated
Rule: Criterion met for apparent KD of MS2 coat protein not less than 50 nM, Criterion not met for anything less.

Exam item: decide whether the reported apparent KD of MS2 coat protein for AAGGGUACUUUCGGAACGACAUGAGGAUCACCCAUGUAUACUGAGGAUAUCCACUACUAAGGACGGGAGAAGGCAGUGUAAUGU [Ex NG3 #78] (Eterna round: R96, puzzle: Exclusion NG 3) is at least 50 nM.
Criterion not met

---

Listed sequences paired with reported apparent KD of K4 kissing-loop reporter
Tested on: K4 kissing-loop RNA reporter;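 note: bound reporter read as fluorescence of individual clusters on recovered sequencing chips by microscopy, with normalized cluster intensities fitted with a binding model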
Assay: apparent KD of K4 kissing-loop reporter; higher = weaker reporter binding
Settings: Eterna round: R107; input ligand: arginine 13.2 mM
A number alone suffices; assume nM.

Observe how each entry below is paired with its result.
Assign apparent KD of K4 kissing-loop reporter to the following record: AAGGUUGUGCAUGGGAGUGAUGUUCCCACGCAGGAUAUCGCUCACGCGAGAAGGGCGAGCACAACCGCUCAAGAAACUUGAGCAA [Omei KL FMN A SS C v2]
118

Assign apparent KD of K4 kissing-loop reporter to the following record: AGUGAUAUAUGAGGAUAUGGGUUAAUUAGUGAGUGAUUUUUAGUGUUGUUUGAUUAGUGAUGUUAUUUAGAAGGCGUGAGUGAUG [mvvmjmullin]
106

Shifting focus to the sequence that follows.
Assign apparent KD of K4 kissing-loop reporter to the following record: CGGCCCGGCGCGGCCGCCACUGUGCCUGGGCGCUUGCCGAGUGAUGUUCGUCGGCGGUCGGGUGGCAGGACCGGGCGCCGGUCCG [BDazzled - #26 SS Tryptophan B]
129

---

Tested on: MS2 coat protein
Experiment: apparent KD of MS2 coat protein; designed switch direction (-1 OFF switch, 1 ON switch): -1; higher = weaker reporter binding
Conditions: input ligand: none
Listed sequences paired with reported apparent KD of MS2 coat protein
A bare number is not enough; add the unit after it.

Assign apparent KD of MS2 coat protein to the following record: UUAUAACAUGAGGAUCACCCAUGUUAGGAUAUCGCAGUAAGCUUCAGUAAUGAGCAUUCGAGAAGGAACGGGUA [Eternabot (L2) Solution 63] (Eterna round: R97, puzzle: Exclusion 1)
22 nM

Assign apparent KD of MS2 coat protein to the following record: GUUUUGGGAGGAUAUAUGUGGAUAAUUUUUAUAUGAAAAUUACAUGAGGAUCACCCAUGUAGAAGGUCUAGAGC [-17.2, -15.1 kcal, 32% A] (Eterna round: R97, puzzle: Exclusion 2)
637 nM

Assign apparent KD of MS2 coat protein to the following record: AAAAAAUACAUGAGGAUCACCCAUGUAGAGUGGGAAGAGAGAUAGGAUAUGAUGUGAGAAUCAUAUCAGAAGGAUCGAGACUCA [AK ExNG3-2.2] (Eterna round: R96, puzzle: Exclusion NG 3)
139 nM

Assign apparent KD of MS2 coat protein to the following record: CUAGCGAUUGUAGGAUAUCGGACUGUUUCAGUCUGAGAAGGACAUGAGGAUCACCCAUGUGAUGGAUCGUGAGAUCCACGCUAG [JL ENG1 3.80] (Eterna round: R96, puzzle: Exclusion NG 1)
27.9 nM

Assign apparent KD of MS2 coat protein to the following record: UCUGUACAUCCCAAGCAUAACAUGAGGAUCACCCAUGUUGAACAAAACGUCGGUCCUGCUGCUCGUCGAAGGAAUAG [Eternabot (Original) Solution 8] (Eterna round: R97, puzzle: Sensor, turn-off variant 1)
47.5 nM
